Test system: 171881-019-R-J1-PDC tumor spheroid viability
ASSAY_NAME: Anticancer human tumor 171881-019-R-J1-PDC patient-derived invasive breast carcinoma cell line growth inhibition [PI3K]
STATED_CONDITIONS: second compound 10 µM; first compound 3.16 µM; active compounds read low; spheroids with HUVEC and MSC
RECORDED_ENDPOINT: viability, T/C (%)
Give bare numbers, in %.

Prompt line: Value lookup for viability, T/C; key = CC1(C)CCC(CN2CCN(c3ccc(C(=O)NS(=O)(=O)c4ccc(NCC5CCOCC5)c([N+](=O)[O-])c4)c(Oc4cnc5[nH]ccc5c4)c3)CC2)=C(c2ccc(Cl)cc2)C1 + CC(Nc1ncnc2nc[nH]c12)c1cc2cccc(Cl)c2c(=O)n1-c1ccccc1
Response line: 37.7

Prompt line: Now this one: C=CC(=O)N1CCN(c2nc(=O)n(-c3c(C)ccnc3C(C)C)c3nc(-c4c(O)cccc4F)c(F)cc23)C(C)C1 (stereo not given) + CC(Nc1ncnc2nc[nH]c12)c1cc2cccc(Cl)c2c(=O)n1-c1ccccc1
Response line: 64.5

Prompt line: Lookup Cn1ncc(Cl)c1-c1cc(C(=O)NC(CN)Cc2cccc(F)c2)sc1Cl (stereo not given) + CC(Nc1ncnc2nc[nH]c12)c1cc2cccc(Cl)c2c(=O)n1-c1ccccc1
Response line: 6.81

Prompt line: Next up: CC1(C)CCC(Nc2ncc(C(F)(F)F)c(-c3c[nH]c4c(P(C)(C)=O)c(C#N)ccc34)n2)CN1 (stereo not given) + Cc1nc(NC(=O)N2CCCC2C(N)=O)sc1-c1ccnc(C(C)(C)C(F)(F)F)c1
Response line: 2.85

Next:
Prompt line: Could you share which viability, T/C value was measured for CC(C)NCC(C(=O)N1CCN(c2ncnc3c2C(C)CC3O)CC1)c1ccc(Cl)cc1 (stereo not given) + Cc1nc(NC(=O)N2CCCC2C(N)=O)sc1-c1ccnc(C(C)(C)C(F)(F)F)c1 ?
Response line: 2.77

====

System: 171881-019-R-J1-PDC tumor spheroid viability
ASSAY_NAME: Anticancer human tumor 171881-019-R-J1-PDC cell line growth inhibition [PI3K]; active = viability on the fitted dose curve at most 10% of control; inactive = the rest;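 note: spheroids exposed to compound for 7 days before viability read; 100% = DMSO vehicle-treated spheroids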
STATED_CONDITIONS: second compound 0.1 µM; first compound 0.000316 µM; spheroids with HUVEC and MSC
Respond only with the outcome that fits, drawn from active, inactive

A selection of reference data follows.
Prompt line: Hello, I am checking results. What call was entered for CC(C)n1nc(-c2ccc3oc(N)nc3c2)c2c(N)ncnc21 + CC(Nc1ccc2c(c1)OCCn1cc(N3C(=O)OCC3C(F)F)nc1-2)C(N)=O ?
Response line: inactive

Prompt line: Another compound to check: Cn1ncnc1[C@H]1c2n[nH]c(=O)c3cc(F)cc(c23)N[C@@H]1c1ccc(F)cc1 + CC(Nc1ncnc2nc[nH]c12)c1cc2cccc(Cl)c2c(=O)n1-c1ccccc1
Response line: inactive

***
Prompt line: Query: recorded result category for CC(C)n1nc(-c2ccc3oc(N)nc3c2)c2c(N)ncnc21 + Cc1nc(NC(=O)N2CCCC2C(N)=O)sc1-c1ccnc(C(C)(C)C(F)(F)F)c1 in this test
Response line: inactive

Prompt line: Record: CC(C)n1nc(-c2ccc3oc(N)nc3c2)c2c(N)ncnc21 + CC(Nc1ncnc2nc[nH]c12)c1cc2cccc(Cl)c2c(=O)n1-c1ccccc1
Response line: inactive

Prompt line: Moving on to CC(=O)c1c(C)c2cnc(Nc3ccc(N4CCNCC4)cn3)nc2n(C2CCCC2)c1=O + COc1c(OCCCN2CCOCC2)ccc2c3n(c(=NC(=O)c4cnc(N)nc4)nc12)CCN3
Response line: active

Prompt line: Ok, now CC(=O)c1c(C)c2cnc(Nc3ccc(N4CCNCC4)cn3)nc2n(C2CCCC2)c1=O + Cc1nc(NC(=O)N2CCCC2C(N)=O)sc1-c1ccnc(C(C)(C)C(F)(F)F)c1
Response line: inactive

====

Tested on: 171881-019-R-J1-PDC tumor spheroid viability
ASSAY_NAME: Anticancer human tumor 171881-019-R-J1-PDC cell line growth inhibition [PI3K];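 note: spheroids exposed to compound for 7 days before viability read; 100% = DMSO vehicle-treated spheroids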
STATED_CONDITIONS: second compound 0.316 µM; first compound 0.316 µM; active compounds read low; spheroids with HUVEC and MSC
From the text: Combinatorial screen of targeted agents with the PI3K inhibitors inavolisib, alpelisib, duvelisib, and copanlisib in multi-cell type tumor spheroids A high-throughput screen of multi-cell type tumor spheroids was designed to identify active combinations of targeted small molecules and PI3K pathway inhibitors. […] Compounds. […] If the clinical Cmax for an agent had not been determined, the highest concentration tested was 10 microM. […]
RECORDED_ENDPOINT: viability, T/C (%)
Answers are plain numbers, in %.

Before answering, review these 3 worked examples.
Prompt line: Return reported viability, T/C; argument: CC(C)NCC(C(=O)N1CCN(c2ncnc3c2C(C)CC3O)CC1)c1ccc(Cl)cc1 (stereo not given) + COc1c(OCCCN2CCOCC2)ccc2c3n(c(=NC(=O)c4cnc(N)nc4)nc12)CCN3
Response line: 2.26

Prompt line: Let us now turn to C=CC(=O)N1CCN(c2nc(=O)n(-c3c(C)ccnc3C(C)C)c3nc(-c4c(O)cccc4F)c(F)cc23)C(C)C1 (stereo not given) + Cc1nc(NC(=O)N2CCCC2C(N)=O)sc1-c1ccnc(C(C)(C)C(F)(F)F)c1
Response line: 56.8

Prompt line: Now the molecule CC(Cn1ccc(-c2ccc(C#N)c(Cl)c2)n1)NC(=O)c1cc(C(C)O)[nH]n1 (stereo not given) + CC(Nc1ccc2c(c1)OCCn1cc(N3C(=O)OCC3C(F)F)nc1-2)C(N)=O
Response line: 25.8

For every listed record, write down its viability, T/C.
1. C#Cc1c(F)ccc2cc(O)cc(-c3ncc4c(N5CC6CCC(C5)N6)nc(OCC56CCCN5CC(F)C6)nc4c3F)c12 (stereo not given) + CC(Nc1ncnc2nc[nH]c12)c1cc2cccc(Cl)c2c(=O)n1-c1ccccc1
2. CC1(C)CCC(Nc2ncc(C(F)(F)F)c(-c3c[nH]c4c(P(C)(C)=O)c(C#N)ccc34)n2)CN1 (stereo not given) + CC(Nc1ncnc2nc[nH]c12)c1cc2cccc(Cl)c2c(=O)n1-c1ccccc1

Response line:
1: 51.6; 2: 74.1

====

System: 171881-019-R-J1-PDC tumor spheroid viability
ASSAY_NAME: Anticancer human tumor 171881-019-R-J1-PDC cell line growth inhibition [PI3K];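 note: spheroids exposed to compound for 7 days before viability read; 100% = DMSO vehicle-treated spheroids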
STATED_CONDITIONS: second compound 1 µM; first compound 0.1 µM; active compounds read low; spheroids with HUVEC and MSC
Assignment: determine reported viability, T/C for the given compounds.

Prompt line: Fill in: viability, T/C of C[C@@H](NC(=O)c1ncnc(N)c1Cl)c1ncc(C(=O)Nc2cc(C(F)(F)F)c(Cl)cn2)s1 + Cc1nc(NC(=O)N2CCCC2C(N)=O)sc1-c1ccnc(C(C)(C)C(F)(F)F)c1 is ___
Response line: 33.3%

Prompt line: Cool, now CC(=O)c1c(C)c2cnc(Nc3ccc(N4CCNCC4)cn3)nc2n(C2CCCC2)c1=O + CC(Nc1ncnc2nc[nH]c12)c1cc2cccc(Cl)c2c(=O)n1-c1ccccc1
Response line: 82.2%

Prompt line: Queued: Cn1nccc1Nc1nccc(-c2ccn(C(CO)c3ccc(Cl)c(F)c3)c(=O)c2)n1 (stereo unspecified) + Cc1nc(NC(=O)N2CCCC2C(N)=O)sc1-c1ccnc(C(C)(C)C(F)(F)F)c1
Response line: 20%

Prompt line: And Cn1ncnc1[C@H]1c2n[nH]c(=O)c3cc(F)cc(c23)N[C@@H]1c1ccc(F)cc1 + CC(Nc1ccc2c(c1)OCCn1cc(N3C(=O)OCC3C(F)F)nc1-2)C(N)=O ?
Response line: 17.7%

Prompt line: Thanks! And CC1(C)CCC(CN2CCN(c3ccc(C(=O)NS(=O)(=O)c4ccc(NCC5CCOCC5)c([N+](=O)[O-])c4)c(Oc4cnc5[nH]ccc5c4)c3)CC2)=C(c2ccc(Cl)cc2)C1 + CC(Nc1ccc2c(c1)OCCn1cc(N3C(=O)OCC3C(F)F)nc1-2)C(N)=O ?
Response line: 20.9%

Prompt line: Next: Cn1nccc1Nc1nccc(-c2ccn(C(CO)c3ccc(Cl)c(F)c3)c(=O)c2)n1 (stereo unspecified) + CC(Nc1ccc2c(c1)OCCn1cc(N3C(=O)OCC3C(F)F)nc1-2)C(N)=O
Response line: 13.9%

Prompt line: Ok, now CCCS(=O)(=O)Nc1ccc(F)c(C(=O)c2c[nH]c3ncc(-c4ccc(Cl)cc4)cc23)c1F + CC(Nc1ccc2c(c1)OCCn1cc(N3C(=O)OCC3C(F)F)nc1-2)C(N)=O
Response line: 28.4%

Prompt line: Then CC(C)NCC(C(=O)N1CCN(c2ncnc3c2C(C)CC3O)CC1)c1ccc(Cl)cc1 (stereo unspecified) + CC(Nc1ncnc2nc[nH]c12)c1cc2cccc(Cl)c2c(=O)n1-c1ccccc1 ?
Response line: 81%

I have 3 compounds here; please give me viability, T/C for each one.
1. CC(C)n1nc(-c2ccc3oc(N)nc3c2)c2c(N)ncnc21 + Cc1nc(NC(=O)N2CCCC2C(N)=O)sc1-c1ccnc(C(C)(C)C(F)(F)F)c1
2. CC1(C)CCC(CN2CCN(c3ccc(C(=O)NS(=O)(=O)c4ccc(NCC5CCOCC5)c([N+](=O)[O-])c4)c(Oc4cnc5[nH]ccc5c4)c3)CC2)=C(c2ccc(Cl)cc2)C1 + COc1c(OCCCN2CCOCC2)ccc2c3n(c(=NC(=O)c4cnc(N)nc4)nc12)CCN3
3. Cn1nccc1Nc1nccc(-c2ccn(C(CO)c3ccc(Cl)c(F)c3)c(=O)c2)n1 (stereo unspecified) + COc1c(OCCCN2CCOCC2)ccc2c3n(c(=NC(=O)c4cnc(N)nc4)nc12)CCN3

Response line:
["2.58%", "0.89%", "0.82%"]
